Measured values drawn from ChEMBL document CHEMBL3112441 for this set.

System: Rattus norvegicus
PROTOCOL_DETAILS: Anticonvulsant activity in Wistar albino rat assessed as protection against subcutaneous pentylenetetrazole-induced seizures by measuring latency period at 10 mg/kg, po pretreated for 1 hr followed by pentylenetetrazole challenge measured over 300 secs (reference value: 72 +/- 2 secs)
Assay type: functional
Items are presented alongside their recorded Time.

>  <GIVEN_SMILES>
CCOC(=O)C(C(=O)OCC)N1C(C)=C(C(=O)OC)C(/C=C/c2ccccc2)C(C(=O)OC)=C1C

>  <Time>
268 s

$$$$
>  <GIVEN_SMILES>
CCOC(=O)C(C(=O)OCC)N1C(C)=C(C(=O)OC)C(c2ccccc2)C(C(=O)OC)=C1C

>  <Time>
>300 s

$$$$
>  <GIVEN_SMILES>
CCOC(=O)C(C(=O)OCC)N1C(C)=C(C(=O)OC)C(CCc2ccccc2)C(C(=O)OC)=C1C

>  <Time>
>300 s

$$$$
>  <GIVEN_SMILES>
CCOC(=O)C(C(=O)OCC)N1C(C)=C(C(=O)OC)C(c2ccccc2[N+](=O)[O-])C(C(=O)OC)=C1C

>  <Time>
295 s

$$$$
>  <GIVEN_SMILES>
CCOC(=O)C1=C(C)N(C(C(=O)OCC)C(=O)OCC)C(C)=C(C(=O)OCC)C1/C=C/c1ccc([N+](=O)[O-])cc1

>  <Time>
>300 s

$$$$
>  <GIVEN_SMILES>
CCOC(=O)C1=C(C)N(C(C(=O)OCC)C(=O)OCC)C(C)=C(C(=O)OCC)C1Cc1ccccc1

>  <Time>
265 s

$$$$
>  <GIVEN_SMILES>
CCOC(=O)C1=C(C)N(C(C(=O)OCC)C(=O)OCC)C(C)=C(C(=O)OCC)C1/C=C/c1ccccc1

>  <Time>
>300 s

$$$$
>  <GIVEN_SMILES>
CCOC(=O)C1=C(C)N(C(C(=O)OCC)C(=O)OCC)C(C)=C(C(=O)OCC)C1c1ccccc1

>  <Time>
283 s

$$$$
>  <GIVEN_SMILES>
CCOC(=O)C1=C(C)N(C(C(=O)OCC)C(=O)OCC)C(C)=C(C(=O)OCC)C1

>  <Time>
192 s

$$$$
>  <GIVEN_SMILES>
CCOC(=O)C(C(=O)OCC)N1C(C)=C(C(=O)OC)C(/C=C/c2ccc([N+](=O)[O-])cc2)C(C(=O)OC)=C1C

>  <Time>
>300 s

$$$$
